Hello, the source for this data is patent US20100196385A1, in case you need it.

- tested-target: T1, human Jagged1 (human, UniProt P78504 34-1218)
- T1 construct: whole, on cells
- T1 sequence (P78504 34-1218): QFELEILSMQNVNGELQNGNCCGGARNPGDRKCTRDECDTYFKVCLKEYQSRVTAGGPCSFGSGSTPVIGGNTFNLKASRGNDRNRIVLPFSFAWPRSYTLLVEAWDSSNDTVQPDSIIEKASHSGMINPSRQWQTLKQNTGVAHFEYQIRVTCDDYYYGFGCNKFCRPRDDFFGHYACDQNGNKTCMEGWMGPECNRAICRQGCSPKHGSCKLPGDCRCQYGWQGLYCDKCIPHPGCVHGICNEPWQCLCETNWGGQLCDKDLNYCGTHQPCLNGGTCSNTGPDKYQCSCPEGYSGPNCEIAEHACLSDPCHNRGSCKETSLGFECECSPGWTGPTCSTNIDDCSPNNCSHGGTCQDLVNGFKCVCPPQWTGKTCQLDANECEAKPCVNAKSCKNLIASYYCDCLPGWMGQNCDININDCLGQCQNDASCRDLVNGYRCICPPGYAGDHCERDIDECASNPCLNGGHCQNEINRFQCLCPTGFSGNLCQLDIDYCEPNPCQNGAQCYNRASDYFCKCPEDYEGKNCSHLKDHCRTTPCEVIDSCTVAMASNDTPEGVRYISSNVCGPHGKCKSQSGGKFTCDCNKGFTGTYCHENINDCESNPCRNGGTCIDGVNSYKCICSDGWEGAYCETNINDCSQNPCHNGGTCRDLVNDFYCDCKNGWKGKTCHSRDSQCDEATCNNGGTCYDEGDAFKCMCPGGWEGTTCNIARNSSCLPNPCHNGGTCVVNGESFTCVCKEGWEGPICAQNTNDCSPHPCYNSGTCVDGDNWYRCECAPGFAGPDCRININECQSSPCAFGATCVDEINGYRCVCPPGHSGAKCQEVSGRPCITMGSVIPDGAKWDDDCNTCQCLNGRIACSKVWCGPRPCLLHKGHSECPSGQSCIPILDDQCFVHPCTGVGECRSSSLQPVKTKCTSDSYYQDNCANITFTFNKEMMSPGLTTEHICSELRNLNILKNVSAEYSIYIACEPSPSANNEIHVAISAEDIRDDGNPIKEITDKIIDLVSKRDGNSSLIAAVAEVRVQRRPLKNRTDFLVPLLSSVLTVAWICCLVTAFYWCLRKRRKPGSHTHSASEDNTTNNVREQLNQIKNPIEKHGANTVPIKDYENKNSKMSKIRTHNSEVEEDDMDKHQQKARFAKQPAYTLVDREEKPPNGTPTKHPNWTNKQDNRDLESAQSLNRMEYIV
- test: FACS, 5 µg/ml, 293T cells with human Jagged1 vs mock
quantity-kind: Jagged1/mock ratio
Reply briefly: the number, and no unit.

Check out these entries, answers already filled in.
21H3 (antibody, IgG4, V domains shown, Fully human; used for IgG4 rows and where no isotype is printed; also called 21H3 IgG4) VH: QVQLVQSGAEVKKPGASVKVSCKASGYTFTNYGITWVRQAPGQGPEWMGWISAYNGNTNYAQKLQDRVTVTTDTSTSTAYMELRSLRSDDTAVYYCARDRVPRIPVTTEAFDIWGQGTMVTVSS VL: QSVLTQPPSASGTPGQRVTISCSGSSSNIGSYFVYWYQQLPGTAPKLLIYRNNQRPSGVPDRFSGSESGTSASLAISGLRSEDEADYYCAAWDDSLSGHWVFGGGTRLTVL; 1.12
1E4 (antibody, IgG2, V domains shown, Fully human; also used where no isotype is printed) VH: QVQLVESGGGVVQPGRSLRLSCAASGFTFSSYGMHWVRQAPGKGLEWVAVTWYDGSNKYYADSVKGRFTISRDNSKNTLYLQMNSLRAEDTAVYYCARENCSSTSCYYTVTTDYYGMDVWGQGTTVTVSS VL: EIVLTQSPGTLSLSPGERATLSCRASQRVSSSYLTWYQQKPGQAPRLLIYGASIRATGIPDRFSGSGSGTDFTLTITRLEPEDFAVYFCQQCYTSPITFGQGTRLDIK; 1.13
4B3 (antibody, IgG4, V domains shown, Fully human; also used where no isotype is printed) VH: QVQLVQSGAEVRKSGASVKVSCKASGYSFTTYDINWVRQATGQGLEWMGWMNPNSGYTDYAQKFQGRVTLTRNMSIDTAYMELSSLRSEDTAVYYCARAYYYDSSAYYLFDYWGQGTLVTVSS VL: DIQMTQSPSSLSASVGDRVTITCRASQGISNYLAWFQQKPGKAPKSLIYAASSLQSGVPSKFSGSGSGTDFTLTISSLQPEDFATYFCQQYISYPLTFGGGTKVEI; 1.04
9G8 (antibody, IgG4, V domains shown, Fully human; used for IgG4 rows and where no isotype is printed; also called 9G8 IgG4) VH: QLQLQESGPGLVKPSETLSLSCTVSGGSISSSSSYWGLIRQPPGKGLEWIGSIYYSGSTYYSPSLKSRVSISVDTSKNQFSLKLSSVTAADTAVYFCARQGYGGHPDVFDIWGQGTMVTVSS VL: SSELTQSPSVSVSPGQTARITCSGDKLGDVYVCWYQQKTGQSPVLVIYEDTKRPSGIPERFSGSNSGNTATLTISGTQVMDEADYYCQAWDSTTAVIFGGGTKLTVL; 1.07
20G8 (antibody, IgG4, V domains shown, Fully human; also used where no isotype is printed) VH: QVQLVQSGAEVKKPGASVKVSCKASGYTFTSYGISWVRQAPGQGLEWMGWISVYNGNTNYAQKLQGRVTMTTDTSTSTAYMEVRSLRSDDTAVYYCARDRVPRIPRTTEAFDIWGRGTMVTVCS VL: QSVLTQPPSASGTPGQRVTISCSGSSSNIGSYYVYWYQQLPGTAPKLLIYRDNQRPSGVPDRFSGSKSGTSASLAIRGLRSDDEADYYCAAWDDSLSGHWVFGGGTKLTVL; 1.12
4B4 (antibody, IgG4, V domains shown, Fully human; used for IgG4 rows and where no isotype is printed; also called 4B4 IgG4; 4B4.1) VH: QVLLIQSGAEVKKPGASVQVSCKASGYTFTNYGVIWVRQAPGQGLEYMGWISAYNGNTNYAQKLQDRVTMTSDTSTTTAYMELRSLRSDDTAVYYCARELGSSFDYWGQGTLVTVSS VL: SYELTQPPSVSVSPGQTARITCSGDALPKKYAYWYQQKSGQAPVLVIYEDIKRPSGIPERFSGSSSGTMATLTISGAQVEDEADYYCFSTDNSGDHSVFGGGTKLTVL; 1.09
17F3 (antibody, IgG2, V domains shown, Fully human; also used where no isotype is printed) VH: QVQLVQSGAEVKKPGASVKVSCKASGYTFTNYGISWVRQAPGQGLEWMGWINAYNGNTNYAQNLQGRVTMTTDTSTNTAYMELRSLRSDDTAVYYCARVAPAAFFDYWDQGTLVTVSS VL: SYELTQPPSVSVSPGQTASITCSGDKLGDKYVCWYQQKPGQSPVLVIYQDNKRPSGIPERFSGSNSGNTATLIISGTQAMDEADYYCQAWDSSTVFGGGTKLTVL; 1.08

Note: attention shifts to another entry.
Entry 1D4 (antibody, IgG4, V domains shown, Fully human XenoMouse antibody; also used where no isotype is printed) VH: QLQLQESGPGLVKPSETLSLTCTVSGGSISSSSYYWGWIRQPPGKGLEWIGSFYYSRSTYYNPSLKSRVTISVDTSKNQFSLKLSSVTAADTAVHYCARGSIAVPDAFDIWGQGTMVTVSS VL: SYELTQPPSVSVSPGQTASITCSGDKLGDKFACWYQQKPGHSPVLVVYQDNKRPSGIPERFSGSNSGNSATLTISGTQAMDEADYYCQAWDSNTAVFGGGTKLTVL , Jagged1/mock ratio reported as 1.01
